// provenance: patent US20250195521A1

target-desc: KRAS G12C (Homo sapiens (Human), UniProt P01116+P62937, G12C)
Sequence (P01116-2 other isoform, or with tags, fused parts or gaps G12C): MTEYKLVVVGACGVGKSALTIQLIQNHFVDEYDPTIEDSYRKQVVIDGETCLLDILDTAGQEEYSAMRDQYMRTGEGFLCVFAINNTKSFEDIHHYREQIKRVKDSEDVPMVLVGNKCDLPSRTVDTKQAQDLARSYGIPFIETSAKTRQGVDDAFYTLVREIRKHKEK
Sequence (P62937 whole entry): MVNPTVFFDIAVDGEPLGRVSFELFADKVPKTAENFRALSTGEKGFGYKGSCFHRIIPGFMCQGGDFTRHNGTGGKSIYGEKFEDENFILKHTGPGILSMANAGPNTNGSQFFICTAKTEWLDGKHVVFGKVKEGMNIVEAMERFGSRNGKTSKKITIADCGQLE
method-notes: Ras-Raf disruption/FRET/MOA assay (BRAF RBD, Cyclophilin A)
Format: biochemical
applied-conditions: read-out: KRAS G12C FRET IC50
Assign IC50 to each entry below.

Request: // returns reported IC50 for input CCn1c(-c2cccnc2[C@H](C)OC)c2c3cc(ccc31)-c1cc(O)cc(c1)C[C@H](NC(=O)[C@H](C(C)C)N(C)C(=O)C13CCC(CC1)O3)C(=O)N1CCC[C@H](N1)C(=O)OCC(C)(C)C2 [Compound A412]
Result: 10 to 100 nM

Request: // returns reported IC50 for input CCn1c(-c2cccnc2[C@H](C)OC)c2c3cc(ccc31)-c1csc(n1)C[C@H](NC(=O)[C@H](C(C)C)N(CCc1ccncc1)C1CC1)C(=O)N1CCC[C@H](N1)C(=O)OCC(C)(C)C2 [Compound A556]
Result: 100 to 1000 nM

Request: // returns reported IC50 for input CCn1c(-c2cccnc2[C@H](C)OC)c2c3cc(ccc31)-c1csc(n1)C[C@H](NC(=O)[C@H](C(C)C)N(C)C(=O)N1CCOC[C@H]1C)C(=O)N1CCC[C@H](N1)C(=O)OCC(C)(C)C2 [Compound A402]
Result: 10 to 100 nM

Request: // returns reported IC50 for input CCn1c(-c2cccnc2[C@H](C)OC)c2c3cc(ccc31)-c1cc(O)cc(c1)C[C@H](NC(=O)[C@H](C(C)C)N(C)C(=O)[C@H]1CCC(=O)O1)C(=O)N1CCC[C@H](N1)C(=O)OCC(C)(C)C2 [Compound A405]
Result: 10 to 100 nM

Request: // returns reported IC50 for input CCn1c(-c2cccnc2[C@H](C)OC)c2c3cc(ccc31)-c1csc(n1)C[C@H](NC(=O)[C@H](C(C)C)N(C)C(=O)N1CC[C@@H]1CN)C(=O)N1CCC[C@H](N1)C(=O)OCC(C)(C)C2 [Compound A558]
Result: 10 to 100 nM

Request: // returns reported IC50 for input CCn1c(-c2cccnc2[C@H](C)OC)c2c3cc(ccc31)-c1cc(O)cc(c1)C[C@H](NC(=O)[C@H](C(C)C)N(C)C(=O)[C@H]1CCN(C(=O)OC3CC3)C1)C(=O)N1CCC[C@H](N1)C(=O)OCC(C)(C)C2 [Compound A202]
Result: 10 to 100 nM

Request: // returns reported IC50 for input CCn1c(-c2cccnc2[C@H](C)OC)c2c3cc(ccc31)-c1csc(n1)C[C@H](NC(=O)[C@H](C(C)C)N(C)C(=O)N1CC3CC(C1)O3)C(=O)N1CCC[C@H](N1)C(=O)OCC(C)(C)C2 [Compound A301]
Result: 100 to 1000 nM

Request: // returns reported IC50 for input CCn1c(-c2cccnc2[C@H](C)OC)c2c3cc(ccc31)-c1csc(n1)C[C@H](NC(=O)[C@H](C(C)C)N(C)C(=O)N1C[C@@H]3C[C@H]1CN3C)C(=O)N1CCC[C@H](N1)C(=O)OCC(C)(C)C2 [Compound A314]
Result: 100 to 1000 nM

Request: // returns reported IC50 for input CCn1c(-c2cccnc2[C@H](C)OC)c2c3cc(ccc31)-c1csc(n1)C[C@H](NC(=O)[C@H](C(C)C)N(C)C(=O)N1CC3(CCCN(C)C3=O)C1)C(=O)N1CCC[C@H](N1)C(=O)OCC(C)(C)C2 [Compound A453]
Result: 100 to 1000 nM
